Tested On: integrin α4β7 (Homo sapiens, UniProt P13612+P26010)
Test Method Notes: Integrin α4β7—MAdCAM-1 competition assay (ELISA)
Assay type: binding
Experimental Context: ratio a4b1 ELISA IC50 / a4b7 ELISA IC50
Selectivity ELISA: recorded values
Please respond with just the number, no unit label.

Compound	Selectivity ELISA
CC[C@H](C)[C@@H]1NC(=O)[C@H](CC(=O)O)NC(=O)[C@H](CC(C)C)NC(=O)C[C@@H](CCCCN)NC(=O)[C@H](Cc2ccccc2)NC(=O)[C@@H]2CCCN2[C@H](C(=O)NC(C)(C)C)[C@H](C)NC1=O [Compound 220]	18.2

[Q] Given the entry CC(C)C[C@@H]1NC(=O)C2(Cc3ccccc3C2)NC(=O)[C@@H]2CCCN2[C@H](C(=O)NC(C)(C)C)[C@H](C)NC(=O)[C@H]([C@@H](C)O)NC(=O)[C@H](CC(=O)O)NC1=O [UM0132369-01] , report its measured Selectivity ELISA.
[A] 14.4

----------
Test Method Notes: Plasma protein binding, equilibrium dialysis, mouse plasma
Experimental Context: CD-1, mouse, 50% plasma, free fraction (% unbound), mouse plasma
Measure: fraction unbound at 5 h, 1 microM

[Q] Given the entry CC(C)NCC(O)COc1cccc2ccccc12 (stereo not shown) [Propranolol, reference compound] , report its measured fraction unbound at 5 h, 1 microM.
[A] ~0.21

----------
Tested On: integrin α4β7 (Homo sapiens, UniProt P13612+P26010)
Sequence (P13612 34-977 limits assumed): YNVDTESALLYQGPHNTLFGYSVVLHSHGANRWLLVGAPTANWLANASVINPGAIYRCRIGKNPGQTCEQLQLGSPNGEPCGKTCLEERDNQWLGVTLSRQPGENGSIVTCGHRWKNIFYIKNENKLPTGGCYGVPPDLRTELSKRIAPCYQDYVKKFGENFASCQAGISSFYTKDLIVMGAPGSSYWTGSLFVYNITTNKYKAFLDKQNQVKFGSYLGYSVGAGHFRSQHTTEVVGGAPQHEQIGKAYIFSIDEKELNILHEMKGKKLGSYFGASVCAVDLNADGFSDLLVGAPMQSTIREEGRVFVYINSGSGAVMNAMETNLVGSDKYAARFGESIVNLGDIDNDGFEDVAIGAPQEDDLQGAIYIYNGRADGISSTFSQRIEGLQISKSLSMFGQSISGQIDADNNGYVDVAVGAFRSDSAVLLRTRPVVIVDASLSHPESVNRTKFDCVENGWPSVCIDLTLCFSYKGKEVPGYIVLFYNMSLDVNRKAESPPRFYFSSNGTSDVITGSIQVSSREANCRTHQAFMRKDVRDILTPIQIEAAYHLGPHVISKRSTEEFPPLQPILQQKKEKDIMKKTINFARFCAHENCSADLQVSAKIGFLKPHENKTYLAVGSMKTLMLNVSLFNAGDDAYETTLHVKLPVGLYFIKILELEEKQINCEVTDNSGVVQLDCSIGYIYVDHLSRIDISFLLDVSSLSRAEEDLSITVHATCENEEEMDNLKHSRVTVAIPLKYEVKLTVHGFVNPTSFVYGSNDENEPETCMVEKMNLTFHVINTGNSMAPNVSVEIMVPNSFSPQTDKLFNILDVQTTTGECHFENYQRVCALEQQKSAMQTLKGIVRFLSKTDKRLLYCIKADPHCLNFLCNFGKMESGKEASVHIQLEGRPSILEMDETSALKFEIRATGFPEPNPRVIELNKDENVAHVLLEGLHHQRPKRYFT
Sequence (P26010 20-723 limits assumed): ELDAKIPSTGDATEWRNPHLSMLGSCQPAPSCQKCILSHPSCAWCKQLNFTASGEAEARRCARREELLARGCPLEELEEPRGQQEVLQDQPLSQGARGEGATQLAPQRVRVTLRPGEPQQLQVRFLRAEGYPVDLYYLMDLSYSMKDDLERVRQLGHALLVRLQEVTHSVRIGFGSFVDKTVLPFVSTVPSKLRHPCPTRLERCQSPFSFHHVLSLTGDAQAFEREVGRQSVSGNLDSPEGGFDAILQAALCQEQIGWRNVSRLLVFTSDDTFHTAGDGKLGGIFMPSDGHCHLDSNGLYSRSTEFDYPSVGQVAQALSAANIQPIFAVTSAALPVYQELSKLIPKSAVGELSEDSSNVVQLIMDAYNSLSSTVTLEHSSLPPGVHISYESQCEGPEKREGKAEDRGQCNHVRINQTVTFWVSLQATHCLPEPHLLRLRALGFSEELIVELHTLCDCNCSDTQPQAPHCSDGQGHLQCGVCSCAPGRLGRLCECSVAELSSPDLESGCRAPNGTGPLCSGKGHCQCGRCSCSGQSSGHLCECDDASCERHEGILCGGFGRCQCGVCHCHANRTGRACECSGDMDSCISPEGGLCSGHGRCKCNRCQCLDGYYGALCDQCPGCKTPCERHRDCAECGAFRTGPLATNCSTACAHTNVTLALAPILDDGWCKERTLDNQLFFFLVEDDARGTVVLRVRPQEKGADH
Test Method Notes: Integrin α4β7—MAdCAM-1 competition assay (ELISA)
Assay type: binding
Experimental Context: ratio a4b1 ELISA IC50 / a4b7 ELISA IC50
Threshold-based label: Selectivity ELISA under 3 gives class 1, Selectivity ELISA not under 3 gives class 0.

// below: answered compounds
Chemical Structure	Classification
CC(C)C[C@@H]1NC(=O)[C@H](Cc2ccccc2)NC(=O)[C@@H]2C[C@@H](F)CN2[C@H](C(=O)NC(C)(C)C)[C@H](C)NC(=O)[C@H]([C@@H](C)O)NC(=O)[C@H](CC(=O)O)NC1=O	class 0
CC(C)C[C@@H]1NC(=O)[C@H](Cc2c[nH]cn2)NC(=O)[C@@H]2CCCN2[C@H](C(=O)NC(C)(C)C)[C@@H](CSc2ccccc2)NC(=O)[C@H](C(C)C)NC(=O)[C@H](CC(=O)O)NC1=O	class 1
CC(C)C[C@@H]1NC(=O)[C@H]2C[C@H](O)CN2C(=O)[C@H](Cc2ccc(CN)cc2)NC(=O)[C@@H]2CCCN2[C@H](C(=O)NC(C)(C)C)[C@H](C)NC(=O)[C@H]([C@@H](C)O)NC(=O)[C@H](CC(=O)O)NC1=O	class 0
COc1ccc(C[C@@H]2NC(=O)[C@@H]3CCCN3[C@H](C(=O)NC(C)(C)C)[C@H](C)NC(=O)[C@H]([C@@H](C)O)NC(=O)[C@H](CC(=O)O)NC(=O)[C@H](CC(C)C)NC(=O)[C@H]3CCCN3C2=O)cc1OC	class 0
CC(C)C[C@@H]1NC(=O)CN(C)C(=O)[C@H](Cc2csc(-c3cccnc3)n2)NC(=O)[C@@H]2CCCN2[C@H](C(=O)NC(C)(C)C)[C@H](C)NC(=O)[C@H]([C@@H](C)O)NC(=O)[C@H](CC(=O)O)NC1=O	class 0

[Q] I wonder whether "CO[C@H](C)[C@@H]1NC(=O)[C@H](CC(=O)O)NC(=O)[C@H](CC(C)C)NC(=O)[C@H](Cc2ccccc2)NC(=O)[C@@H]2CCCN2[C@H](C(=O)NC(C)(C)C)[C@H](C)NC1=O" has Selectivity ELISA below 3. Can you tell?
[A] class 1

[Q] Request: "CC(C)C[C@@H]1NC(=O)[C@H](CC2CCCCC2)NC(=O)[C@@H]2CCCN2[C@H](C(=O)NC(C)(C)C)[C@H](C)NC(=O)[C@H]([C@@H](C)O)NC(=O)[C@H](CC(=O)O)NC1=O"
[A] class 1

[Q] Request: "CC(C)C[C@@H]1NC(=O)c2cc(cc(-c3ccncc3)c2)CNC(=O)[C@@H]2CCCN2[C@H](C(=O)NC(C)(C)C)[C@H](C)NC(=O)[C@H]([C@@H](C)O)NC(=O)[C@H](CC(=O)O)NC1=O"
[A] class 0

[Q] Request: "CC(C)C[C@@H]1NC(=O)[C@@H](CCCN(C)C)NC(=O)[C@@H]2CCCN2[C@H](C(=O)NC(C)(C)C)[C@H](C)NC(=O)[C@H]([C@@H](C)O)NC(=O)[C@H](CC(=O)O)NC1=O"
[A] class 0

[Q] Request: "CC(C)C[C@@H]1NC(=O)c2ccc(-c3ccncc3)c(c2)CNC(=O)[C@H](Cc2ccc(O)cc2)NC(=O)[C@@H]2CCCN2[C@H](C(=O)NC(C)(C)C)[C@H](C)NC(=O)[C@H]([C@@H](C)O)NC(=O)[C@H](CC(=O)O)NC1=O"
[A] class 1

[Q] Request: "CC(C)C[C@@H]1NC(=O)[C@H](C2CCCCC2)NC(=O)[C@@H]2CCCN2[C@H](C(=O)NC(C)(C)C)[C@H](C)NC(=O)[C@H]([C@@H](C)O)NC(=O)[C@H](CC(=O)O)NC1=O"
[A] class 0
